# Test system: 885512-296-R-J2-PDC complex spheroid growth, % test/control
# method notes: Anticancer human tumor 885512-296-R-J2-PDC patient-derived breast carcinoma cell line growth inhibition [AhR]
# condition set: second compound 0.316 µM; first compound 0.316 µM; active compounds read low
Criterion: viability, T/C strictly under 80%. Met: Satisfied. Not met: Not satisfied.

Q: Please indicate whether the reported viability, T/C of O=C(c1cc(Cc2n[nH]c(=O)c3ccccc23)ccc1F)N1CCN(C(=O)C2CC2)CC1 + Cc1cncc(-c2nc(NCCc3c[nH]c4ccccc34)c3ncn(C(C)C)c3n2)c1 is strictly below 80%.
A: Not satisfied

Q: How about CC1COCCN1c1cc(C2(S(C)(=N)=O)CC2)nc(-c2ccnc3[nH]ccc23)n1 (configuration not stated) + CC(CO)NC(=O)c1cc(-c2ccc(Cl)cc2)nn(-c2cnn(C)c2)c1=O ?
A: Not satisfied

Q: Likewise for Nc1ccn(C2OC(CO)C(O)C2(F)F)c(=O)n1 (configuration not stated) + Cc1ccccc1N=Nc1ccc(NC(=O)c2ccnn2C)c(C)c1 ?
A: Satisfied

Q: Also need NS(=O)(=O)OCC1CC(n2ccc3c(NC4CCc5ccccc54)ncnc32)CC1O (configuration not stated) + Cc1ccccc1N=Nc1ccc(NC(=O)c2ccnn2C)c(C)c1 , thanks.
A: Satisfied

Q: Please give the result for O=C(c1cc(Cc2n[nH]c(=O)c3ccccc23)ccc1F)N1CCN(C(=O)C2CC2)CC1 + CC(CO)NC(=O)c1cc(-c2ccc(Cl)cc2)nn(-c2cnn(C)c2)c1=O too.
A: Not satisfied

* * *

# Test system: 885512-296-R-J2-PDC complex spheroid growth, % test/control
# method notes: Anticancer human tumor 885512-296-R-J2-PDC cell line growth inhibition [AhR]; active = viability on the fitted dose curve at most 10% of control; inactive = the rest;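 further: spheroids exposed to compounds for seven days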
# condition set: second compound 3.16 µM; first compound 3.16 µM
The reply should be one of these categories: T (active), F (inactive)

Q: Which outcome was assigned to CC(C)c1c(-c2ccccc2)nc2c(C#N)c[nH]n2c1=O + Cc1ccccc1N=Nc1ccc(NC(=O)c2ccnn2C)c(C)c1 in this test?
A: F

Q: Next up: NS(=O)(=O)OCC1CC(n2ccc3c(NC4CCc5ccccc54)ncnc32)CC1O (stereo unspecified) + CC(CO)NC(=O)c1cc(-c2ccc(Cl)cc2)nn(-c2cnn(C)c2)c1=O
A: T

Q: CC1(C)CCC(CN2CCN(c3ccc(C(=O)NS(=O)(=O)c4ccc(NCC5CCOCC5)c([N+](=O)[O-])c4)c(Oc4cnc5[nH]ccc5c4)c3)CC2)=C(c2ccc(Cl)cc2)C1 + CC(CO)NC(=O)c1cc(-c2ccc(Cl)cc2)nn(-c2cnn(C)c2)c1=O ?
A: F

Q: Try the compound Nc1ccccc1NC(=O)c1ccc(CNC(=O)OCc2cccnc2)cc1 + Cc1ccccc1N=Nc1ccc(NC(=O)c2ccnn2C)c(C)c1
A: F

Q: Please do the same for COc1cc(C2c3cc4c(cc3C(OC3OC5COC(C)OC5C(O)C3O)C3COC(=O)C23)OCO4)cc(OC)c1O (stereo unspecified) + CC(CO)NC(=O)c1cc(-c2ccc(Cl)cc2)nn(-c2cnn(C)c2)c1=O as well.
A: F

Q: Now consider CC1COCCN1c1cc(C2(S(C)(=N)=O)CC2)nc(-c2ccnc3[nH]ccc23)n1 (stereo unspecified) + Cc1ccccc1N=Nc1ccc(NC(=O)c2ccnn2C)c(C)c1 .
A: F

Where do the numbers come from? From PubChem BioAssay AID1919006.
